Entry source: patent US10829473B2

Reported pEC50 values for the following molecules.
target: F508delCFTR (Homo sapiens, UniProt P13569, DEL508-508); construct: expressed in transfected cells; host or cells: CFBE41o- human lung derived epithelial cells (CFBE41o-F508delCFTR-HRP), doxycycline-inducible; test: Cell Surface Expression-Horse Radish Peroxidase (CSE-HRP) Assay; assay type: cell-based; details: test compound alone, without co-corrector; read-out: EC50 (without co-corrector)
Sequence (P13569 with tags, fused parts or gaps DEL508-508): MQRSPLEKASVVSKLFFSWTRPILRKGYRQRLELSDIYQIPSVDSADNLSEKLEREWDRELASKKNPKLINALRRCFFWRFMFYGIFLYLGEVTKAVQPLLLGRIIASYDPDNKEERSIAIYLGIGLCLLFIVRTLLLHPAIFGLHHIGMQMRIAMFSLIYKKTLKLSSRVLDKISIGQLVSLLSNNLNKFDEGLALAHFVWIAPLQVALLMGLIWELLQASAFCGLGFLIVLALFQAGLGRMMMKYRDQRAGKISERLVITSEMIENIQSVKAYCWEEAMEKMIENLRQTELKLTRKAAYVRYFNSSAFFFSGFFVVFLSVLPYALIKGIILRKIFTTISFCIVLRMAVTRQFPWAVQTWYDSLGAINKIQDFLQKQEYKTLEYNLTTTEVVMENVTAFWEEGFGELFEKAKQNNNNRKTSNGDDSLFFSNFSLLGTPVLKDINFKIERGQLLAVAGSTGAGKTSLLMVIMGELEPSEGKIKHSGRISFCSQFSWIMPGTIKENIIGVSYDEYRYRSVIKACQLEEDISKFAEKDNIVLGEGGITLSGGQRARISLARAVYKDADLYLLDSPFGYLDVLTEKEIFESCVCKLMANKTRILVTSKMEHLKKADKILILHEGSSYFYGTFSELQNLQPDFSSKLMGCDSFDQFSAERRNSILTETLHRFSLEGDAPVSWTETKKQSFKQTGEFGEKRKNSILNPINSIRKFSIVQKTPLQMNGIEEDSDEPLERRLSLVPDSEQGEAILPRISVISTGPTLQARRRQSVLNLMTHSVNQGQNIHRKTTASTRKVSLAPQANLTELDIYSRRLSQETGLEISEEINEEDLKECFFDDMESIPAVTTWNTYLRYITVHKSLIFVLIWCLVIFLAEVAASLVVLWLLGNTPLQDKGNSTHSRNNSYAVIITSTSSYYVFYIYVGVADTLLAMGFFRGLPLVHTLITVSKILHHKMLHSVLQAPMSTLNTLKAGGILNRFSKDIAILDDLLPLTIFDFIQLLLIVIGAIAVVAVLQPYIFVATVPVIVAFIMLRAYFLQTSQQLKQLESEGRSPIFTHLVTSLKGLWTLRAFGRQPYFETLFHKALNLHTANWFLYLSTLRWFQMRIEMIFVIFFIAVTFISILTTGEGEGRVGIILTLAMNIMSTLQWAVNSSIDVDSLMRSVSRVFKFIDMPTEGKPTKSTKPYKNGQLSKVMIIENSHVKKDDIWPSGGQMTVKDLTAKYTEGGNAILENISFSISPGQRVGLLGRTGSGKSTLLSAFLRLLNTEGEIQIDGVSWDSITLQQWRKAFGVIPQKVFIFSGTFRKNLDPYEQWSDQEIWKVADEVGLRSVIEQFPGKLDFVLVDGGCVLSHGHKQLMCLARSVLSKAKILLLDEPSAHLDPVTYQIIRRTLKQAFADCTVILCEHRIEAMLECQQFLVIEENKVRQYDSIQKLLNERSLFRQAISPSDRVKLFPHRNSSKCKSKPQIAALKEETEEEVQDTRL
pEC50: −log10 of the molar value.

Worked examples, 5 molecules total:
molecule | reported.endpoint | endpoint.result
O=C(NS(=O)(=O)c1cccc(OC(F)(F)F)c1)C1(c2ccc(Cl)cc2Cl)CC1 [Example III-64] | pEC50 | < 5.00
COc1cccc(C2CCC2)c1C1(C(=O)NS(=O)(=O)c2cccc3ncccc23)CC1 [Example I-51] | pEC50 | > 5.52
COc1ccc(C)cc1C1(C(=O)NS(=O)(=O)c2cccc3[nH]ccc23)CC1 [Example I-49] | pEC50 | > 5.52
COC(=O)C1(c2ccc(OC)c(C3(C(=O)NS(=O)(=O)c4cccc5ncccc45)CC3)c2)CC1 [II-30] | pEC50 | 5.00 to 5.52
CCOc1ccc(C)cc1C1(C(=O)NS(=O)(=O)c2cccc3nc(OC)ccc23)CC1 [II-83] | pEC50 | > 5.52

QUERY: Quick one: pEC50 of O=C(O)c1ccc(Cl)cc1S(=O)(=O)NC(=O)C1(c2ccc(Cl)cc2Cl)CC1 [Example III-68] ?
RESULT: < 5.00

QUERY: Quick one: pEC50 of CCOc1ccc(C(C)(C)COC)cc1C1(C(=O)NS(=O)(=O)c2cccc3ncccc23)CC1 [Example I-101] ?
RESULT: > 5.52

QUERY: Quick one: pEC50 of CCc1ccc(O[C@@H]2CCOC2)c(C2(C(=O)NS(=O)(=O)c3cccc4nc(C)ccc34)CC2)c1 [Example I-119] ?
RESULT: > 5.52
